Molecular target: human DA D4.2 receptor (Homo sapiens, UniProt P21917, DEL265-296)
Sequence (P21917 with tags, fused parts or gaps DEL265-296): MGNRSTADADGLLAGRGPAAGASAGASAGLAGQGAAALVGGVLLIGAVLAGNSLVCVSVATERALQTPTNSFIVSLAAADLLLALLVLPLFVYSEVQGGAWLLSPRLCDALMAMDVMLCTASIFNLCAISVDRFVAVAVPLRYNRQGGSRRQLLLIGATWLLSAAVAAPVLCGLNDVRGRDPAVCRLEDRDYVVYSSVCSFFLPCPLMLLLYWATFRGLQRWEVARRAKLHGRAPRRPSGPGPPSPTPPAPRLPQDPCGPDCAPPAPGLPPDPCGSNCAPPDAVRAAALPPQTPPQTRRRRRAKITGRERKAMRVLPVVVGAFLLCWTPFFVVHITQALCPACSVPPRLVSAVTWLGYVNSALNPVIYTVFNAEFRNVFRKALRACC
Experiment: [3H]Thymidine uptake assay (block of quinpirole stimulation in CHO pro-5 cells transfected with human DA D4.2 receptor)
Settings: human D4.2, quinpirole-stimulated uptake
pIC50: −log10 of the molar value.
Metric name: pIC50

The examples below pair each entry with its known result.
>>> result("Cc1ccc(N2CCN(Cc3ccc4c(c3)NCCN4)CC2)cc1C [Example 2]")
8.80
>>> result("Cc1ccc(N2CCN(Cc3ccc4c(c3)NCCN4)CC2)cc1 [Example 8]")
8.09

A. Cc1ccc(N2CCN(Cc3ccc4c(c3)NCCN4)CC2)cc1Cl [Example 1]
B. Clc1ccc(N2CCN(Cc3ccc4c(c3)NCCN4)CC2)cc1 [Example 5]
Input line: Given the two records A and B , choose the one whose pIC50 value is lower. // return label of chosen record
Output line: B
(B: 7.72, A: 8.00)

====

Molecular target: human D4.2 receptor (Homo sapiens, UniProt P21917, DEL265-296)
Sequence (P21917 with tags, fused parts or gaps DEL265-296): as above
Experiment: Inhibition of [3H]spiperone binding to human dopamine D4.2 receptors
Conditions: human D4.2, CHO K1 membranes
Metric name: IC50 (nM)

Example entries and their recorded answers appear below.
>>> result("c1ccc(N2CCN(Cc3ccc4c(c3)NCCN4)CC2)cc1")
50
>>> result("COc1ccc(N2CCN(Cc3ccc4c(c3)NCCN4)CC2)cc1")
39.3
>>> result("Fc1ccc(N2CCN(Cc3ccc4c(c3)NCCN4)CC2)cc1")
50.6

a. Cc1ccnc(N2CCN(Cc3ccc4c(c3)NCCN4)CC2)c1
b. Clc1ccc(N2CCN(Cc3ccc4c(c3)NCCN4)CC2)cc1
Input line: Field: lower recorded IC50 (choose a or b ) Respond with the label that goes with your answer.
Output line: b

====

Target: human D4.2 receptor (Homo sapiens, UniProt P21917, DEL265-296)
Construct: expressed in transfected cells; host or cells: CHO K1 cells
Assay: Inhibition of [3H]spiperone binding to human dopamine D4.2 receptors
Conditions: human D4.2, CHO K1 membranes
pIC50: −log10 of the molar value.
Metric name: pIC50

>>> result("FC(F)(F)c1cccc(N2CCN(Cc3ccc4c(c3)NCCN4)CC2)c1 [Example 11]")
7.66
>>> result("Cc1ccc(N2CCN(Cc3ccc4c(c3)NCCN4)CC2)cc1 [Example 8]")
7.95
>>> result("Cc1ccc(N2CCN(Cc3ccc4c(c3)NCCN4)CC2)cc1Cl [Example 1]")
8.41

P. Cc1ccc(N2CCN(Cc3ccc4c(c3)NCCN4)CC2)cc1C [Example 2]
Q. Clc1ccc(N2CCN(Cc3ccc4c(c3)NCCN4)CC2)cc1Cl [Example 7]
Input line: Could you tell me which of these two has the smaller pIC50 figure? First: P Second: Q Kindly give the label for the entry you pick.
Output line: Q

====

Biological target: human D2 receptor (Homo sapiens, UniProt P14416)
Sequence (P14416 whole entry): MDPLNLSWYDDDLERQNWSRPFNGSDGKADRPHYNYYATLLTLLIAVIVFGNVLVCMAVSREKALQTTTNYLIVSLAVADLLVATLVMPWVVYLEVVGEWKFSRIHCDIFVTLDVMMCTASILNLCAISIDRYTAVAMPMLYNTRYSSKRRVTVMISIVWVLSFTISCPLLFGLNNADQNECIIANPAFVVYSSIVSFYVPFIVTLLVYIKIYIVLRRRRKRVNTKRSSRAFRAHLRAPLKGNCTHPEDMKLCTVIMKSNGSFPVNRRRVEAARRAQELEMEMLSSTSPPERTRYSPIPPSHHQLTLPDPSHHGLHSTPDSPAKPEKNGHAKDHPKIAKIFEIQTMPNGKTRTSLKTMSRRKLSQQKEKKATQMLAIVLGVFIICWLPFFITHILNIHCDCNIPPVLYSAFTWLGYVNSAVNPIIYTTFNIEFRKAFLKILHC
Assay: Inhibition of [3H]spiperone binding to human dopamine D2 receptors
Settings: human D2 (Long form), CHO K1 membranes
pIC50: −log10 of the molar value.
Metric name: pIC50

1. FC(F)(F)c1cccc(N2CCN(Cc3ccc4c(c3)NCCN4)CC2)c1
2. Cc1ccc(N2CCN(Cc3ccc4c(c3)NCCN4)CC2)cc1C
Input line: Which shows the larger pIC50 value: 1 or 2 ? Mark your answer with the label of the selected entry.
Output line: 1
(1: 6.17, 2: 5.53)

A. Cc1ccc(N2CCN(Cc3ccc4c(c3)NCCN4)CC2)cc1Cl
B. c1ccc(N2CCN(Cc3ccc4c(c3)NCCN4)CC2)cc1
Input line: Name the one with the greater pIC50 value, either A or B as given. Let me know the label of the one you choose.
Output line: A
(A: 5.74, B: 5.49)
